Where do the numbers come from? From patent EP0831877B1.

# tested-on: GST A1-1 (Homo sapiens, UniProt P08263)
# Sequence (P08263 1-222): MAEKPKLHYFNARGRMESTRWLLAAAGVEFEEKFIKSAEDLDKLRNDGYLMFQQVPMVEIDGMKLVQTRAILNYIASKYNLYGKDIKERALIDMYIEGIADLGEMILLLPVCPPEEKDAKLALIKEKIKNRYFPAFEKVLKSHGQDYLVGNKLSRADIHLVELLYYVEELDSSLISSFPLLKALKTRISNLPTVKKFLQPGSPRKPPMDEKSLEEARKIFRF
# test-protocol: inhibition of GST isoenzyme A1-1 (Ki)
# Assay type: biochemical
# protocol-conditions: determined on unesterified form
pKi: −log10 of the molar value. *1 amine or outer side, *2 acyl side, *3 side chain or, on linkers, in order; H or OH if unused. Where a SMILES comes first, the peptide text is derived from it. [ ]: non-standard residue; d: D form. The star is where a group is joined. γGlu = O=C(O)[C@H](CCC(=O)[*:2])N[*:1]; dPhg = N[C@@H](C(=O)O)c1ccccc1; Bn = c1ccc(C*)cc1
metric-name: pKi

1. N[C@@H](CCC(=O)N[C@@H](CSCc1ccccc1)C(=O)N[C@@H](C(=O)O)c1ccccc1)C(=O)O [TER117, γE-C(Bz)-ϕG] (γGlu-Cys(Bn)-[dPhg]-OH): 4.70
